test: in vitro; conditions: human, hela cells, % viability
Outcome Measure: viability at 28.5 h, 10 µM (%)

entry_smiles=O[C@@H]1CN(Cc2ccccc2F)CC[C@H]1N1CCCC1 unit_name=% reported_result=96.9
entry_smiles=CCOC(=O)c1c(NC(=O)CCC(=O)O)sc2c1CCCCC2 unit_name=% reported_result=100
entry_smiles=CCOc1ccc2c(c1)-c1c(ssc1=S)C(C)(C)N2C(=O)CSc1nnc[nH]1 unit_name=% reported_result=98.6
entry_smiles=COc1cc(Nc2nc(-c3c(OC)cccc3OC)cn3ccnc23)cc(OC)c1OC unit_name=% reported_result=95.5
entry_smiles=NC(=O)c1ccccc1NC(=O)COc1ccccc1 unit_name=% reported_result=85.1
entry_smiles=COc1ccccc1N1CCN(CCCCNS(=O)(=O)c2ccc(Cl)c(Cl)c2)CC1 unit_name=% reported_result=97.8
entry_smiles=O=C(CSCc1nc2ccccc2c(=O)n1-c1ccccc1Cl)Nc1ccccc1 unit_name=% reported_result=95.2
entry_smiles=O=C(O)COc1ccc(Br)cc1/C=C1\N=C(SCc2ccccc2)SC1=O unit_name=% reported_result=110
entry_smiles=COc1ccc(OCc2nc(C)cc(=O)n2CC(=O)NC(C)C)cc1 unit_name=% reported_result=99
